Data origin: patent US8143255B2

- MEASUREMENT_TARGET: FLT3 (Homo sapiens, UniProt P36888)
- Sequence (P36888 27-993): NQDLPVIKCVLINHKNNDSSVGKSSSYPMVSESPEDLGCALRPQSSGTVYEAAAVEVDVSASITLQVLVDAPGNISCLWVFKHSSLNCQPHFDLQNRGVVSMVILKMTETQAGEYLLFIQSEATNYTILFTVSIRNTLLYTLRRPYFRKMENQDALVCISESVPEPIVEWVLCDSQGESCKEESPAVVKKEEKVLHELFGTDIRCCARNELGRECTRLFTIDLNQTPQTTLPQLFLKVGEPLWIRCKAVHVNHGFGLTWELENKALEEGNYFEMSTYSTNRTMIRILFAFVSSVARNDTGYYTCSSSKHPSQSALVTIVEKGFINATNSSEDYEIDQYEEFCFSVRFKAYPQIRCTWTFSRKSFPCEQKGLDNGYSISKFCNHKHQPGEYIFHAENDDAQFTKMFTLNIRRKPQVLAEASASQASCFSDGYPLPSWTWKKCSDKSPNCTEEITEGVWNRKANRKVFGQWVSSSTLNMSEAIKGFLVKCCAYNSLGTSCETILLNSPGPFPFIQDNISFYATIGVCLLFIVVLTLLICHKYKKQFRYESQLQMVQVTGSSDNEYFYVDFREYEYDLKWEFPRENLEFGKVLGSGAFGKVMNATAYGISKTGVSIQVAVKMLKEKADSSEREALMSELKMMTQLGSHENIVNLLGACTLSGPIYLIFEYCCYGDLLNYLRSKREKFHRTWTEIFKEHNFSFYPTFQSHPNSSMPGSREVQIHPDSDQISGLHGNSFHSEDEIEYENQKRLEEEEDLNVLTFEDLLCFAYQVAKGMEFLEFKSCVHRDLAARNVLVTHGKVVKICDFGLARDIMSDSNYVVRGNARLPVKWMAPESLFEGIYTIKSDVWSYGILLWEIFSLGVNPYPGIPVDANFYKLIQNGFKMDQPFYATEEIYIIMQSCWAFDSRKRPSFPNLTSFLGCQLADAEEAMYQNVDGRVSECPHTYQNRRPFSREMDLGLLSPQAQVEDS
- EXPERIMENT: In vitro kinase activity assay (PKLight), FLT3
- SETTINGS: recombinant FLT3, poly(Glu,Tyr) substrate, 4 μM ATP
Measured IC50, listed per entry.

Please review the entries below; each comes with its answer.
CN1C/C=C/CCOc2cccc(c2)-c2ccnc(n2)Nc2ccc(OCCN3CCCCC3)c(c2)C1 ... ≤ 1 µM
C1=C\CNCc2cccc(c2)Nc2nccc(n2)-c2cccc(c2)OCC/1 ... ≤ 1 µM
CN1C/C=C/CCOc2cc(ccc2N)-c2ccnc(n2)Nc2cccc(c2)C1 ... ≤ 1 µM
CCS(=O)(=O)CCOc1ccc2cc1CN(C)C/C=C/CCOc1cccc(c1)-c1ccnc(n1)N2 ... ≤ 1 µM
CN1C/C=C/CCOc2cccc(c2)-c2ccnc(n2)Nc2ccc(OCCN3CCOCC3)c(c2)C1 ... ≤ 1 µM

-- ask Given the entry CN1C/C=C/COCC2=CC=C(O2)c2ccnc(n2)Nc2cccc(c2)C1 , what IC50 was observed with FLT3 (Homo sapiens, UniProt P36888)?
-- reply ≤ 1 µM

-- ask Try C1=C/CN(C2CC2)Cc2cccc(c2)Nc2nccc(n2)-c2cccc(c2)OCC/1 next.
-- reply ≤ 1 µM
